- assay summary: Pulmonary toxicity in Lewis rat assessed as fold elevation of BAL protein content at 2 mg/kg, po by chemistry analyzer based analysis relative to control
- Type: organism-based
- measurement conditions: in vivo
measurement label: fold change (FC)

compound: COCCCCCC1CCc2cc([C@H]3CC[C@](N)(CO)C3)ccc2C1 (single isomer, unassigned; 24)
fold change (FC): 1.5

compound: COCCCC1CCc2cc([C@H]3CC[C@](N)(CO)C3)ccc2C1 (stereo in doubt; 22b)
fold change (FC): 1.6

compound: CCCCSCC1CCc2cc([C@H]3CC[C@](N)(CO)C3)ccc2C1 (single isomer, unassigned)
fold change (FC): 1.1

Quick one: fold change (FC) of COCCCCCCC1CCc2cc([C@H]3CC[C@](N)(CO)C3)ccc2C1 (stereo in doubt; 25a) ?
1.7

###

Some molecules, each annotated with its measured bioavailability.
- assay summary: Oral bioavailability in cynomolgus monkey at 1 mg/kg
- Type: ADME, organism-based, Macaca fascicularis
- measurement conditions: in vivo
Dear colleague, please return just the value in %, with no unit written.

molecule: COCCCCCC1CCc2cc([C@H]3CC[C@](N)(CO)C3)ccc2C1 (single isomer, unassigned; 24)
endpoint value: 69

Quick one: bioavailability of CCOCCCC1CCc2cc([C@H]3CC[C@](N)(CO)C3)ccc2C1 (single isomer, unassigned) ?
76

###

Some compounds, each annotated with its measured Activity.
- assay summary: Reduction in circulating lymphocytes count in Lewis rat at 2 mg/kg, po measured at 24 hrs by hematology analyzer based analysis
- Type: Functional, organism-based
- Parameters: scale not given: the % may be the effect or the level left
- measurement conditions: in vivo
Dear colleague, please return just the value in %, with no unit written.

# example entries with known answers
compound: COCCCCCCC1CCc2cc([C@H]3CC[C@](N)(CO)C3)ccc2C1 (stereo in doubt; 25a)
Activity / %: 84
--
compound: COCCCCCC1CCc2cc([C@H]3CC[C@](N)(CO)C3)ccc2C1 (single isomer, unassigned; 23)
Activity / %: 81
--
compound: COCCCCCC1CCc2cc([C@H]3CC[C@](N)(CO)C3)ccc2C1 (single isomer, unassigned; 24)
Activity / %: 82

Note: attention shifts to another entry.
Quick one: Activity of COCCC1CCc2cc([C@H]3CC[C@](N)(CO)C3)ccc2C1 (stereo in doubt; 21a) ?
12

###

Some compounds, each annotated with its measured Ratio.
- assay summary: Ratio of drug metabolism in Lewis rat blood assessed as phosphate ester metabolite to parent drug at 2 mg/kg, po measured at 24 hrs by LC-MS/MS analysis
- Type: ADME, organism-based
- measurement conditions: in vivo
Form: value (number only, do not type unit).

# example entries with known answers
compound: COCCCCCC1CCc2cc([C@H]3CC[C@](N)(CO)C3)ccc2C1 (single isomer, unassigned; 23)
Ratio: 8.2
//
compound: COCCCCCCC1CCc2cc([C@H]3CC[C@](N)(CO)C3)ccc2C1 (stereo in doubt; 25b)
Ratio: 2.5
//
compound: CCCCSCC1CCc2cc([C@H]3CC[C@](N)(CO)C3)ccc2C1 (single isomer, unassigned)
Ratio: 0.23

Note: attention shifts to another entry.
Quick one: Ratio of C=CCCOC[C@@H]1CCc2cc([C@H]3CC[C@](N)(CO)C3)ccc2C1 ?
0.9

###

- assay summary: Oral bioavailability in Sprague- Dawley rat at 1 mg/kg
- Assay type: ADME, organism-based
- measurement conditions: in vivo
measurement label: bioavailability (%)
Dear colleague, please return just the value in %, with no unit written.

Quick one: bioavailability of CCOCCCC1CCc2cc([C@H]3CC[C@](N)(CO)C3)ccc2C1 (single isomer, unassigned) ?
45

###

- assay summary: Reduction in circulating lymphocytes count in Lewis rat at 1 mg/kg, po measured at 24 hrs by hematology analyzer based analysis
- Format: organism-based
- Set-up: scale not given: the % may be the effect or the level left
- measurement conditions: in vivo
measurement label: Activity (%)
Dear colleague, please return just the value in %, with no unit written.

# example entries with known answers
compound: CCCCSC[C@@H]1CCc2cc([C@H]3CC[C@](N)(CO)C3)ccc2C1
Activity (%): 63
//
compound: C=CCCCC[C@@H]1CCc2cc([C@H]3CC[C@](N)(CO)C3)ccc2C1
Activity (%): 75
//
compound: CCCCCOC1CCc2cc([C@H]3CC[C@](N)(CO)C3)ccc2C1 (stereo in doubt; 10b)
Activity (%): 67
//
compound: CCCCCOC[C@@H]1CCc2cc([C@H]3CC[C@](N)(CO)C3)ccc2C1
Activity (%): 80

Quick one: Activity of CCCC/C=C/[C@@H]1CCc2cc([C@H]3CC[C@](N)(CO)C3)ccc2C1 ?
72

###

- assay summary: Drug concentration in Lewis rat blood assessed as concentration of parent compound at 1 mg/kg, po measured at 4 hrs by LC-MS/MS analysis
- Assay type: ADME, organism-based
- measurement conditions: Lewis, blood, read-out: Ct
measurement label: concentration at 4 h (nM)
Dear colleague, please return just the value in nM, with no unit written.

# example entries with known answers
compound: CCCCCOC1CCc2cc([C@H]3CC[C@](N)(CO)C3)ccc2C1 (stereo in doubt; 10a)
measurement label: concentration at 4 h
endpoint value: 244

compound: CCCCCOC[C@@H]1CCc2cc([C@H]3CC[C@](N)(CO)C3)ccc2C1
measurement label: concentration at 4 h
endpoint value: 27

compound: CCC/C=C/CC1CCc2cc([C@H]3CC[C@](N)(CO)C3)ccc2C1 (single isomer, unassigned)
measurement label: concentration at 4 h
endpoint value: 31

compound: COCCOC[C@@H]1CCc2cc([C@H]3CC[C@](N)(CO)C3)ccc2C1
measurement label: concentration at 4 h
endpoint value: 15

compound: CCCC/C=C/[C@@H]1CCc2cc([C@H]3CC[C@](N)(CO)C3)ccc2C1
measurement label: concentration at 4 h
endpoint value: 57

Quick one: concentration at 4 h of CCCCCC[C@@H]1CCc2cc([C@H]3CC[C@](N)(CO)C3)ccc2C1 ?
36

Quick one: concentration at 4 h of CCCC/C=C\[C@@H]1CCc2cc([C@H]3CC[C@](N)(CO)C3)ccc2C1 ?
24

Quick one: concentration at 4 h of CCCCCCCOC1CCc2cc([C@H]3CC[C@](N)(CO)C3)ccc2C1 (stereo in doubt; 33a) ?
32

Quick one: concentration at 4 h of CCCOCCOC[C@H]1CCc2cc([C@H]3CC[C@](N)(CO)C3)ccc2C1 ?
78

###

- assay summary: Drug metabolism in Lewis rat blood assessed as concentration of parent compound at 1 mg/kg, po measured at 24 hrs by LC-MS/MS analysis
- Type: ADME, organism-based
- measurement conditions: in vivo, 1 mg/kg, 24 h, 1 mg/kg, 24 h, read-out: Ct
measurement label: concentration

# example entries with known answers
compound: CCCCCCCOC1CCc2cc([C@H]3CC[C@](N)(CO)C3)ccc2C1 (stereo in doubt; 33b)
concentration: 25 nM
//
compound: CCCCCOC1CCc2cc([C@H]3CC[C@](N)(CO)C3)ccc2C1 (stereo in doubt; 10b)
concentration: 240 nM

Quick one: concentration of CCCCCCCOC1CCc2cc([C@H]3CC[C@](N)(CO)C3)ccc2C1 (stereo in doubt; 33a) ?
54 nM

Quick one: concentration of CCCCCCOC1CCc2cc([C@H]3CC[C@](N)(CO)C3)ccc2C1 (stereo in doubt; 30b) ?
417 nM

Quick one: concentration of CCCCCCOC1CCc2cc([C@H]3CC[C@](N)(CO)C3)ccc2C1 (stereo in doubt; 30a) ?
28 nM

###

- assay summary: Drug metabolism in Lewis rat blood assessed as parent compound concentration at 0.5 mg/kg, po measured at 24 hrs by LC-MS/MS analysis
- Format: ADME, organism-based
- measurement conditions: Lewis, blood, read-out: Ct
Some molecules, each annotated with its measured concentration at 24 h.

molecule: CCCSCCC1CCc2cc([C@H]3CC[C@](N)(CO)C3)ccc2C1 (single isomer, unassigned)
concentration at 24 h: 20 nM

Note: attention shifts to another entry.
Quick one: concentration at 24 h of CCCCCSC[C@@H]1CCc2cc([C@H]3CC[C@](N)(CO)C3)ccc2C1 ?
< 31 nM

###

- assay summary: Drug metabolism in Lewis rat blood assessed as phosphate ester metabolite to parent ratio at 1 mg/kg, po measured at 24 hrs by LC-MS/MS analysis
- measurement conditions: in vivo
Some compounds, each annotated with its measured Ratio.
Form: value (number only, do not type unit).

# example entries with known answers
compound: CCCCCOC1CCc2cc([C@H]3CC[C@](N)(CO)C3)ccc2C1 (stereo in doubt; 10b)
Ratio: 0.27

compound: CCCCCOC1CCc2cc([C@H]3CC[C@](N)(CO)C3)ccc2C1 (stereo in doubt; 10a)
Ratio: 0.86

compound: CCCC/C=C\[C@@H]1CCc2cc([C@H]3CC[C@](N)(CO)C3)ccc2C1
Ratio: 0.27

compound: CCCC/C=C/[C@@H]1CCc2cc([C@H]3CC[C@](N)(CO)C3)ccc2C1
Ratio: 2.6

compound: CC/C=C/CC[C@@H]1CCc2cc([C@H]3CC[C@](N)(CO)C3)ccc2C1
Ratio: 5.8

compound: CC/C=C\CC[C@@H]1CCc2cc([C@H]3CC[C@](N)(CO)C3)ccc2C1
Ratio: 1.3

Quick one: Ratio of CCCCOC[C@@H]1CCc2cc([C@H]3CC[C@](N)(CO)C3)ccc2C1 ?
0.64

Quick one: Ratio of C=CCCCC[C@@H]1CCc2cc([C@H]3CC[C@](N)(CO)C3)ccc2C1 ?
19

Quick one: Ratio of CCCCCC[C@@H]1CCc2cc([C@H]3CC[C@](N)(CO)C3)ccc2C1 [BMS-986104] ?
1.2

Quick one: Ratio of CCCCSC[C@@H]1CCc2cc([C@H]3CC[C@](N)(CO)C3)ccc2C1 ?
0.36

Quick one: Ratio of CCC/C=C/CC1CCc2cc([C@H]3CC[C@](N)(CO)C3)ccc2C1 (single isomer, unassigned) ?
2.3

Quick one: Ratio of CCC/C=C\CC1CCc2cc([C@H]3CC[C@](N)(CO)C3)ccc2C1 (single isomer, unassigned) ?
8.6

Numbers sourced from ChEMBL document CHEMBL4732158.
